The following compounds are shown together with reported CC50 at 72 h values.
- experiment_notes: in vitro
- test_parameters: human
Quick reminder: number only, in µM, skip the unit.

Below are worked cases with known answers.
| compound | number |
| --- | --- |
| CC1CC(=O)c2ccccc2S1 (stereo not shown) [Compound 3, 2-Methylthiochroman-4-one] | 604 |
| CC1C/C(=N\NC(=O)c2ccc(N)cc2)c2cc(F)ccc2S1 (stereo not shown) [Compound 18] | 31 |
| O=C(N/N=C1\CCSc2ccccc21)c1ccccc1 [Compound 6] | 248 |
| CC1CC(=O)c2cc(F)ccc2S1 (stereo not shown) [Compound 4, 6-Fluoro-2-methylthiochroman-4-one] | 579 |

Could you now consider this next compound?
Task item: Entry C[C@@H]1[C@H](O)[C@@H](C)/C=C/C=C/C=C/C=C/C=C/C=C/C=C/[C@H](O[C@@H]2O[C@H](C)[C@@H](O)[C@H](N)[C@@H]2O)C[C@@H]2O[C@](O)(C[C@@H](O)C[C@@H](O)[C@H](O)CC[C@@H](O)C[C@@H](O)CC(=O)O[C@H]1C)C[C@H](O)[C@H]2C(=O)O [Amphotericin B, reference compound] has what CC50 at 72 h?
Reply: 39.6

----------
- Tested on: intracellular amastigotes of L. panamensis
- experiment_notes: in vitro antileishmanial activity on intracellular amastigotes (EGFP strain in U-937 cells, flow cytometry)
- Type: cell-based, Leishmania panamensis
- test_parameters: Leishmania panamensis; intracellular amastigotes of L. panamensis (MHOM/CO/87/UA140-EGFP) in U-937 cells, 72 h; mean ± SD
measurement_type: log10 EC50 (log10 of the value in µM)
// stored as log10 of EC50 expressed in µM

| compound | system_tested | number |
| --- | --- | --- |
| O=C(N/N=C1\CCSc2ccc(F)cc21)c1ccccc1 | intracellular amastigotes of L. panamensis | 1.57 |

Task item: Entry O=C1CC(c2ccccc2)Sc2ccccc21 (centres unmarked) has what log10 EC50?
Reply: 1.64

Task item: Entry "O=C(N/N=C1\CCSc2ccccc21)c1ccncc1" has what log10 EC50?
Reply: 1.75

Task item: Entry C[C@@H]1[C@H](O)[C@@H](C)/C=C/C=C/C=C/C=C/C=C/C=C/C=C/[C@H](O[C@@H]2O[C@H](C)[C@@H](O)[C@H](N)[C@@H]2O)C[C@@H]2O[C@](O)(C[C@@H](O)C[C@@H](O)[C@H](O)CC[C@@H](O)C[C@@H](O)CC(=O)O[C@H]1C)C[C@H](O)[C@H]2C(=O)O [Amphotericin B, reference compound] has what log10 EC50?
Reply: -0.49

Task item: Entry NC(=S)N/N=C1\CC(c2ccccc2)Sc2ccccc21 (centres unmarked) has what log10 EC50?
Reply: 0.71

----------
- System: intracellular amastigotes of L. panamensis
- experiment_notes: in vitro antileishmanial activity on intracellular amastigotes (EGFP strain in U-937 cells, flow cytometry)
- Assay type: cell-based, Leishmania panamensis
- test_parameters: Leishmania panamensis; intracellular amastigotes of L. panamensis (MHOM/CO/87/UA140-EGFP) in U-937 cells, 72 h; mean ± SD
The following compounds are shown together with reported EC50 values.
Quick reminder: number only, in µM, skip the unit.

| compound | system_tested | EC50 (µM) |
| --- | --- | --- |
| CC1CC(=O)c2cc(F)ccc2S1 (stereo not shown) [Compound 4, 6-Fluoro-2-methylthiochroman-4-one] | intracellular amastigotes of L. panamensis | 422 |
| CC1C/C(=N\NC(=O)c2ccccc2)c2ccccc2S1 (stereo not shown) [Compound 13] | intracellular amastigotes of L. panamensis | 38.1 |
| CC1C/C(=N\NC(=O)c2ccccc2)c2cc(F)ccc2S1 (stereo not shown) [Compound 16] | intracellular amastigotes of L. panamensis | 43.9 |
| NC(=O)N/N=C1\CCSc2ccccc21 [Compound 8] | intracellular amastigotes of L. panamensis | 91.5 |
| CC1C/C(=N\NC(=O)c2ccc(N)cc2)c2ccccc2S1 (stereo not shown) [Compound 15] | intracellular amastigotes of L. panamensis | 91.8 |
| O=C(N/N=C1\CCSc2ccccc21)c1ccccc1 [Compound 6] | intracellular amastigotes of L. panamensis | 63.7 |
| O=C(N/N=C1\CC(c2ccccc2)Sc2ccccc21)c1ccncc1 (stereo not shown) [Compound 22] | intracellular amastigotes of L. panamensis | 16.4 |
| CC1CC(=O)c2ccccc2S1 (stereo not shown) [Compound 3, 2-Methylthiochroman-4-one] | intracellular amastigotes of L. panamensis | 445 |
| O=C(N/N=C1\CC(c2ccccc2)Sc2ccccc21)c1ccccc1 (stereo not shown) [Compound 21] | intracellular amastigotes of L. panamensis | 28.5 |
| CC1C/C(=N\NC(=O)c2ccncc2)c2ccccc2S1 (stereo not shown) [Compound 14] | intracellular amastigotes of L. panamensis | 56.6 |

Task item: Entry NC(=O)N/N=C1\CC(c2ccccc2)Sc2ccccc21 (stereo not shown) [Compound 19] has what EC50?
Reply: 5.4

Task item: Entry O=C(N/N=C1\CCSc2ccc(F)cc21)c1ccncc1 [Compound 11] has what EC50?
Reply: 39.9

Task item: Entry Nc1ccc(C(=O)N/N=C2\CCSc3ccc(F)cc32)cc1 [Compound 12] has what EC50?
Reply: 95.5

Task item: Entry CC1C/C(=N\NC(=O)c2ccncc2)c2cc(F)ccc2S1 (stereo not shown) [Compound 17] has what EC50?
Reply: 98.9

Task item: Entry CC1C/C(=N\NC(=O)c2ccc(N)cc2)c2cc(F)ccc2S1 (stereo not shown) [Compound 18] has what EC50?
Reply: 161
